Hello, the source for this data is paper PMC7187627, in case you need it.

Assay: Plasma pharmacokinetics, multiple-ascending-dose phase 1 study
Assay type: in vivo, human
Conditions: human, plasma; 600 mg Q12h oral, day 1; geometric mean (%CV); read-out: Plasma AUC (AUC0–12)
Method: This study was conducted in full accordance with the Declaration of Helsinki and good clinical practices (GCP) at Quintiles Phase One Services in Overland Park, KS. […] After a screening period of up to 35 days, eligible subjects were admitted to the study center for baseline evaluations on day −1. […] During the inpatient period, subjects were monitored for safety and pharmacokinetics (PK). […]
reported endpoint: AUC(0-t)

O=c1cc(NCCCN[C@@H]2CCOc3c(Br)cc(Br)cc32)[nH]c2ccsc12; 3560 ng·h/mL

###

Assay: Plasma pharmacokinetics, multiple-ascending-dose phase 1 study
Type: in vivo, human
Settings: human, plasma, po, 600 mg, 600 mg Q12h oral, day 10; median (minimum, maximum); read-out: Plasma Tmax,ss
reported endpoint: Tmax (h)

O=c1cc(NCCCN[C@@H]2CCOc3c(Br)cc(Br)cc32)[nH]c2ccsc12; 1

###

Assay: Plasma pharmacokinetics, multiple-ascending-dose phase 1 study
Type: in vivo, human
Settings: human, plasma, po, 600 mg, 600 mg Q12h oral, day 1; median (minimum, maximum); read-out: Plasma t1/2 (converted)
reported endpoint: half-life

O=c1cc(NCCCN[C@@H]2CCOc3c(Br)cc(Br)cc32)[nH]c2ccsc12; 2.85 h

###

Assay: Plasma pharmacokinetics, multiple-ascending-dose phase 1 study
Format: in vivo, human
Settings: human, plasma, oral; 600 mg Q12h, day 10; median; read-out: Plasma AUC(0-tau)
Protocol: This study was conducted in full accordance with the Declaration of Helsinki and good clinical practices (GCP) at Quintiles Phase One Services in Overland Park, KS. […] After a screening period of up to 35 days, eligible subjects were admitted to the study center for baseline evaluations on day −1. […] During the inpatient period, subjects were monitored for safety and pharmacokinetics (PK). […]
reported endpoint: AUC

O=c1cc(NCCCN[C@@H]2CCOc3c(Br)cc(Br)cc32)[nH]c2ccsc12; 3740 ng·h/mL

###

Experiment: Plasma pharmacokinetics, multiple-ascending-dose phase 1 study
Type: in vivo, human
Details: human, plasma, po, 600 mg, 600 mg Q12h oral, day 10; median (minimum, maximum); read-out: Plasma t1/2,ss (converted)
reported endpoint: half-life (h)

O=c1cc(NCCCN[C@@H]2CCOc3c(Br)cc(Br)cc32)[nH]c2ccsc12; 6.1

###

Assay: Plasma pharmacokinetics, multiple-ascending-dose phase 1 study
Format: in vivo, human
Settings: human, plasma, oral, 400 mg, 400 mg Q12h, day 10; median; read-out: Plasma Cmax,ss
Description: This study was conducted in full accordance with the Declaration of Helsinki and good clinical practices (GCP) at Quintiles Phase One Services in Overland Park, KS. […] After a screening period of up to 35 days, eligible subjects were admitted to the study center for baseline evaluations on day −1. […] During the inpatient period, subjects were monitored for safety and pharmacokinetics (PK). […]
reported endpoint: Cmax (ng/mL)

O=c1cc(NCCCN[C@@H]2CCOc3c(Br)cc(Br)cc32)[nH]c2ccsc12; 603

###

Experiment: Plasma pharmacokinetics, multiple-ascending-dose phase 1 study
Assay type: in vivo, human
Conditions: human, plasma, oral, 600 mg, 600 mg Q12h, day 10; geometric mean; read-out: Plasma t1/2,ss (converted)
reported endpoint: half-life (h)

O=c1cc(NCCCN[C@@H]2CCOc3c(Br)cc(Br)cc32)[nH]c2ccsc12; 6.32
